meta.source: the supplement of paper PMC10567573

Listed next: entries and their corresponding protein stability index.
B1: RAB40B (parent)
chain: YSLTTSSTHKRSSLRKVKLVRPPQ

Variants of: B1
Assay: protein stability index of a GFP-peptide fusion (GPS, HEK-293T) (PSI 1-6); higher = more stable;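 also: lentivirally expressed fusions sorted by FACS into six bins by GFP to DsRed ratio, PSI derived from sequencing read proportions per bin multiplied by bin number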
Conditions: c terminus: a fixed tail appended
I only need the number, thanks.

Examples with answers:
S13K = 3.49
R21A = 3.15
Y1M = 3.2
K10I = 2.02
H9G = 3.23

Inquiry: # return recorded protein stability index for input S2L
Reply text: 2.48
